# assayed target: T1, recombinant HMG1 produced in E. coli as calmodulin binding protein (CBP) fusion (human)
# T1 chain: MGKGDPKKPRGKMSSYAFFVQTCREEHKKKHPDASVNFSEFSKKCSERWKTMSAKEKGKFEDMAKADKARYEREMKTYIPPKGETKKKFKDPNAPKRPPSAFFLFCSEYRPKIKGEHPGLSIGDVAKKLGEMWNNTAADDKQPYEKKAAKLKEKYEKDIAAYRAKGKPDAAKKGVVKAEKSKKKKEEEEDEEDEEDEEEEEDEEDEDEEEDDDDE
# assay comment: cell-based or functional assay
Lab note: cut-off is 0.6 µg/mL. Strictly less in IC50, inhibition of rHMG1 stimulated TNF-α release from human PBMCs is Y. Exactly 0.6 µg/mL or more is N.

anti-HMG1 antibody G12 (antibody, V domains shown) VH: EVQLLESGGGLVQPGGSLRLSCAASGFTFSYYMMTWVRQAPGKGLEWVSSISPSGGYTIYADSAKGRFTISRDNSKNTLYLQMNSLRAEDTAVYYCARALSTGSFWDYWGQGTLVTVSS VL: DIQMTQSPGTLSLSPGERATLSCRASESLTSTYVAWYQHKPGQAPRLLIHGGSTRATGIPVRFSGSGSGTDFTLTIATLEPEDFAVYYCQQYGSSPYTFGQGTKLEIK = N
anti-HMG1 antibody G9 (antibody, V domains shown) VH: EVQLLESGGGLVQPGGSLRLSCAASGFTFSSYDMFWVRQAPGKGLEWVSRISPSGGYTYYADSVKGRFTISRDNSKNTLYLQMNSLRAEDTAVYYCARLRYFDSRGYAFDIWGQGTMVTVSS VL: DIQMTQSPGTLSLSPGERATLSCRASQSVRSSYLAWYQQKPGQAPRLLIYGASTRATGIPDRFSGSGSGTDFTLTISRLEPEDFAVYYCQQYGTSRWTFGQGTKVEIK = Y
anti-HMG1 antibody S14 (antibody, V domains shown) VH: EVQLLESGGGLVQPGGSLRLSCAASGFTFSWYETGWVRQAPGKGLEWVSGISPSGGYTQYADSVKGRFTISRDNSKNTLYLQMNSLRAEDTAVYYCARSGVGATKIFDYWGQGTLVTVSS VL: DIQMTQSPSSLSASVGDRVTIICRANERINTYLNWYQQKPGKAPKLLISGTSSLESGVPSRFSGSGSGTEFTLSISSLQPEDFASYYCQQSYSSPYTFGQGTNLEIR = Y

State whether 0.6 µg/mL exceeds IC50, inhibition of rHMG1 stimulated TNF-α release from human PBMCs recorded for anti-HMG1 antibody G2 (antibody, V domains shown) VH: EVQLLESGGGLVQPGGSLRLSCAASGFTFSWYKMQWVRQAPGKGLEWVSGISPSGGSTAYADSVKGRFTISRDNSKNTLYLQMNSLRAEDTAVYYCAKMGLFNTGNSYVDYWGQGTLVTVSS VL: AQSELTQPPSVSEAPGQRVTISCSGSTSNIGNNAVIWYQQLPGKAPKLLIYYDDLLPSGVSDRFSGSKSGTSGSLAISGLQSEDEADYYCASWDDNLNGPLFGGGTKLTVL .
N

Entry source: patent US20090169546A1
